Where do the numbers come from? From the antibiotic and cytotoxicity screens of Wong et al. (2023).

- Test system: HepG2
- Assay Procedure: cytotoxicity call (relative viability < 0.9)
- Condition Details: 10 µM
Out of some 39,000 compounds screened, about 3,300 (8.5%) were called active. The sample holds actives, similar compounds and a random draw of the others, so the mix is not that of the screen.
Possible outcomes: active, inactive

- Compound Structure: "C[C@@H]1CN([C@H](C)CO)C(=O)c2cc(NS(=O)(=O)c3ccc(Cl)cc3)ccc2O[C@@H](C)CCCCO[C@@H]1CN(C)Cc1ccncc1"
  Group Label: "inactive"
- Compound Structure: "Cc1noc(C)c1NC(=O)N[C@@H]1C=C[C@H](CC(=O)N2CCN(C)CC2)O[C@H]1CO"
  Group Label: "inactive"
- Compound Structure: "C=CCOC(=O)[C@@H]1[C@H]2C(=O)O[C@H](c3ccccc3)[C@H](c3ccccc3)N2[C@H](c2ccc(OCCOC(=O)[C@H]3C[C@H]4C(=O)NCC(=O)N4[C@H]3c3cccc(OCCO)c3)cc2)[C@@]12C(=O)Nc1ccccc12"
  Group Label: "inactive"
- Compound Structure: "C[C@@H]1CN([C@H](C)CO)C(=O)c2cc(NC(=O)NC3CCCCC3)ccc2O[C@H]1CN(C)C(=O)Nc1ccc(C(F)(F)F)cc1"
  Group Label: "inactive"
- Compound Structure: "C[C@@H]1CN([C@H](C)CO)C(=O)c2cc(NC(=O)CCC(F)(F)F)ccc2O[C@@H](C)CCCCO[C@H]1CN(C)C(=O)Nc1ccc(C(F)(F)F)cc1"
  Group Label: "inactive"
- Compound Structure: "COc1ccc(NC(=O)Nc2ccc3c(c2)C(=O)N([C@@H](C)CO)C[C@@H](C)[C@@H](CN(C)S(=O)(=O)c2ccc(OC)cc2)OCCCC[C@H](C)O3)cc1"
  Group Label: "inactive"
- Compound Structure: "C[C@@H]1CN([C@@H](C)CO)C(=O)c2cc(NC(=O)Nc3ccc(C(F)(F)F)cc3)ccc2O[C@@H]1CN(C)C(=O)NC1CCCCC1"
  Group Label: "active"
- Compound Structure: "C[C@@H]1CN([C@H](C)CO)C(=O)c2cc(NC(=O)Nc3ccc(C(F)(F)F)cc3)ccc2O[C@H]1CN(C)C(=O)NC1CCCCC1"
  Group Label: "inactive"
- Compound Structure: "C[C@H]1CN([C@@H](C)CO)C(=O)c2cc(NC(=O)NC3CCCCC3)ccc2O[C@H]1CN(C)C(=O)Nc1ccc(C(F)(F)F)cc1"
  Group Label: "inactive"
- Compound Structure: "C[C@@H]1CCCCO[C@H](CN(C)C(=O)C2CCCCC2)[C@@H](C)CN([C@@H](C)CO)C(=O)c2cc(NC(=O)CCC(F)(F)F)ccc2O1"
  Group Label: "inactive"
- Compound Structure: "C[C@H]1CN([C@@H](C)CO)C(=O)c2cc(NC(=O)CCCCCC(=O)Nc3ccccc3N)ccc2O[C@@H]1CN(C)C(=O)Nc1cccc2ccccc12"
  Group Label: "inactive"
- Compound Structure: "C[C@H]1CN([C@@H](C)CO)C(=O)c2cc(NC(=O)Nc3ccc(C(F)(F)F)cc3)ccc2O[C@@H]1CN(C)C(=O)NC1CCCCC1"
  Group Label: "inactive"
